Test: Compound was evaluated for its affinity towards N-methyl-D-aspartate glutamate receptor in male Swiss Webster mice.
Task for the reader: assign each of the following compounds its reported IC50.
Number only, in µM; omit the unit.

Prompt: Entry `c1ccc(C2(N3CCCCC3)CCCCC2)cc1` has what IC50?
Response: 0.035

Prompt: Follow-up item: `c1ccc([C@]23CCCC[C@H]2CCCN3)cc1`
Response: 0.467

Prompt: // same read-out, input: `C[C@]12N[C@H](Cc3ccccc31)c1ccccc12`
Response: 0.0014

Prompt: // same read-out, input: `c1ccc([C@@]23CCCC[C@H]2CCCN3)cc1`
Response: 0.0663
